target.under.test: EPHB2 (UniProt P29323)
Sequence (P29323 whole entry, looked up): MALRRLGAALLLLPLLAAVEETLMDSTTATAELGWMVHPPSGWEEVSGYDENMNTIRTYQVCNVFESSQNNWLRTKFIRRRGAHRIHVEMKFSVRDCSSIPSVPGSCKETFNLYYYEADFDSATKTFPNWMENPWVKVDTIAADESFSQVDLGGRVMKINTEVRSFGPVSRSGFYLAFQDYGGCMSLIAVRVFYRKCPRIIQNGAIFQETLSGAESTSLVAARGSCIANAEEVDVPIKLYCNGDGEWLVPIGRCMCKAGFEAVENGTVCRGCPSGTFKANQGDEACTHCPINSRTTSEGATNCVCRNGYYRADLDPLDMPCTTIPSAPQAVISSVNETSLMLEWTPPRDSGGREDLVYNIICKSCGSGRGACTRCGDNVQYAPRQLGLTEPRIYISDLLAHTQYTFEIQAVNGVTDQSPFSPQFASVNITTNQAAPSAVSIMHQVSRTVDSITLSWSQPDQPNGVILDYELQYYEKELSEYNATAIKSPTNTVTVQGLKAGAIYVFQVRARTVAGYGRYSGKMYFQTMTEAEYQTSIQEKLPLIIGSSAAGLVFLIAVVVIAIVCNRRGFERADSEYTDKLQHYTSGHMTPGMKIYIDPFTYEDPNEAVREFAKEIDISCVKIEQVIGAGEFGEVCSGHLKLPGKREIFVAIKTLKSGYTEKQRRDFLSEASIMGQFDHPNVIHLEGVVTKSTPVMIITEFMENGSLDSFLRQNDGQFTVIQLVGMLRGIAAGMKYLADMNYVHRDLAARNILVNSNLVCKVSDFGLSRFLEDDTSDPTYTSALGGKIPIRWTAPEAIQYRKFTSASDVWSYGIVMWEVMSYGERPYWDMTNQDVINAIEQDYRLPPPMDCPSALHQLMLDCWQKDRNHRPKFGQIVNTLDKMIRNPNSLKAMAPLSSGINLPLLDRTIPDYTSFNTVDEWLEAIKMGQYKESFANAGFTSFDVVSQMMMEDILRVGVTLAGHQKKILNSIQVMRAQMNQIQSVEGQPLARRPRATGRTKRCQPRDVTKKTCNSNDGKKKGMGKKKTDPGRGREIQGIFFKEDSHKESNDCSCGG
test.protocol: phosphorylation enrichment, bacterial display (enrichment ratio); higher = better substrate or ligand; peptides without Tyr show the background;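 also: 11-residue human phosphosite peptides and single-mutation variants displayed on the E. coli surface, counted by deep sequencing, each peptide's frequency after selection divided by its frequency in the unselected input library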;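 also: frequency after pTyr selection over input frequency; kinase dosed for 20-30% of maximal phosphorylation in three min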
measured.property: phosphorylation enrichment
One number for each entry.

>  <seq>
KSEMSYIDGEK [SORBS1_Y485]

>  <phosphorylation enrichment>
0.999

$$$$

Required: phosphorylation enrichment, one value per sequence below.
1. DGTGRYLCNAC [GATA5_Y208_H207R]
2. PQEVMYAQLDH [KIR3DL2_Y398_T397M]
3. HRLSTYTKMLF [CHST8_Y251]
4. EWKQNYEESQS [MYH7_Y1460_K1459N]
5. EFITRYIASLK [PSMA7_Y110_YF]

1. 0.4
2. 0.621
3. 0.655
4. 0.664
5. 0.506
